molecular target: GABA-A receptor; anion channel; assay: Displacement of [3H]- flunitrazepam from rat GABA-A benzodiazepine receptor
Each entry below lists one item and its recorded pKi value.
Scale for pKi: -log10 of concentration given in mol/L; no unit attached.

Notebook: O=C1CC[C@@H]2c3c(-c4noc(C5CC5)n4)ncn3-c3ccccc3N12 , pKi read as 9.19

Notebook: CC(=O)N1Cc2c(-c3nc(C4CC4)no3)ncn2-c2ccccc21 , pKi read as 8.18

Notebook: O=C1CC[C@H]2c3c(-c4noc(C5CC5)n4)ncn3-c3ccccc3N12 , pKi read as 9.21

Notebook: CC(=O)N1Cc2c(-c3noc(C4CC4)n3)ncn2-c2ccccc21 , pKi read as 8.82

Notebook: CC(C)OC(=O)N1c2ccccc2-n2cnc(-c3noc(C4CC4)n3)c2C1(C)C , pKi read as 8.17

Notebook: CC(C)(C)OC(=O)N1Cc2c(-c3noc(C4CC4)n3)ncn2-c2ccccc21 , pKi read as 8.72

Notebook: CC(C)(C)OC(=O)c1ncn2c1CN(C(=O)c1ccccc1Cl)c1ccccc1-2 , pKi read as 8.40

Notebook: O=C(c1ccccc1)N1Cc2c(-c3noc(C4CC4)n3)ncn2-c2ccccc21 , pKi read as 8.37

Notebook: COC(=O)N1c2ccccc2-n2cnc(-c3noc(C4CC4)n3)c2C1(C)C , pKi read as 8.17

Notebook: CC(=O)N1c2ccccc2-n2cnc(-c3noc(C4CC4)n3)c2C1(C)C , pKi read as 8.32

* * *

biological target: GABA-A receptor; anion channel (Rattus norvegicus) (UniProt O09028+P15431+P18506+P18508+P19969+P20236+P23574+P23576+P28471+P28473+P30191+P62813+P63079+P63138+Q91ZM7+Q9ES14); assay: Shift in the affinity of [35S]TBPS for the chloride channel of GABAA receptor complex in the presence and absence of compound; format: protein-complex assay
result type: TBPS shift
Give the figure by itself; no unit, no explanation.

Examples with their reported TBPS shift follow.
{"molecule": "CC(=O)N1Cc2c(-c3noc(C4CC4)n3)ncn2-c2ccc(F)cc21", "TBPS shift": 1.11}
{"molecule": "O=C(c1ccccc1)N1Cc2c(-c3noc(C4CC4)n3)ncn2-c2ccccc21", "TBPS shift": 0.5}
{"molecule": "O=C(c1ccccc1)N1Cc2c(-c3noc(C4CC4)n3)ncn2-c2ccc(F)cc21", "TBPS shift": 0.98}
{"molecule": "CC(C)(C)OC(=O)c1ncn2c1CN(C(=O)c1ccccc1Cl)c1ccccc1-2", "TBPS shift": 0.2}

Notebook: O=C(c1ccccc1)N1Cc2c(-c3noc(C4CC4)n3)ncn2-c2cccc(F)c21 , TBPS shift read as 0.87

Notebook: CC(C)(C)OC(=O)N1Cc2c(-c3noc(C4CC4)n3)ncn2-c2ccccc21 , TBPS shift read as 2.9

Notebook: CC(=O)N1c2ccccc2-n2cnc(-c3noc(C4CC4)n3)c2C1(C)C , TBPS shift read as 0.7

* * *

tested on: Rattus norvegicus; experiment: The compound was tested for antagonistic activity against metrazole induced convulsions in rats after ip administration; type: functional
Binary call on ED50 with cut-off 4 mg/kg: strictly below means yes, and equality or higher means no.

Worked set:
{"compound": "CC(=O)N1Cc2c(-c3noc(C4CC4)n3)ncn2-c2ccccc21", "label": "no"}
{"compound": "CC(=O)N1Cc2c(-c3nc(C4CC4)no3)ncn2-c2ccccc21", "label": "no"}
{"compound": "Cc1ccc(-c2nc3ccc(C)cn3c2CC(=O)N(C)C)cc1 [ZOLPIDEM]", "label": "no"}
{"compound": "O=C1CC[C@H]2c3c(-c4noc(C5CC5)n4)ncn3-c3ccccc3N12", "label": "yes"}
{"compound": "CC(C)(C)OC(=O)c1ncn2c1CN(C(=O)c1ccccc1Cl)c1ccccc1-2", "label": "no"}

ED50 strictly < 4 mg/kg for this compound? O=C1CC[C@@H]2c3c(-c4noc(C5CC5)n4)ncn3-c3ccccc3N12
yes

ED50 strictly < 4 mg/kg for this compound? CC(C)OC(=O)N1c2ccccc2-n2cnc(-c3noc(C4CC4)n3)c2C1(C)C
yes

ED50 strictly < 4 mg/kg for this compound? COC(=O)N1c2ccccc2-n2cnc(-c3noc(C4CC4)n3)c2C1(C)C
no

ED50 strictly < 4 mg/kg for this compound? CC(C)(C)OC(=O)c1ncn2c1C1CCC(=O)N1c1ccccc1-2 (configuration not stated)
no

ED50 strictly < 4 mg/kg for this compound? O=C(c1ccccc1Cl)N1Cc2c(-c3noc(C4CC4)n3)ncn2-c2ccccc21
no

ED50 strictly < 4 mg/kg for this compound? CC(=O)N1c2ccccc2-n2cnc(-c3noc(C4CC4)n3)c2C1(C)C
no

ED50 strictly < 4 mg/kg for this compound? CC(C)(C)OC(=O)N1Cc2c(-c3noc(C4CC4)n3)ncn2-c2ccccc21
yes

* * *

species: Rattus norvegicus; test: Chloride ion influx in rat cerebrocortical membranes; type: functional
So basically: Chlorine uptake at 0.6 or higher? That is YES. Lower than 0.6? That is NO.

{"compound": "O=C1OCC2c3c(-c4noc(C5CC5)n4)ncn3-c3ccccc3N12 (stereo unspecified)", "label": "NO"}
{"compound": "CC(C)OC(=O)N1c2ccccc2-n2cnc(-c3noc(C4CC4)n3)c2C1(C)C", "label": "YES"}
{"compound": "O=C(c1ccccc1)N1Cc2c(-c3noc(C4CC4)n3)ncn2-c2ccc(F)cc21", "label": "YES"}
{"compound": "CC(C)(C)OC(=O)c1ncn2c1CN(C(=O)OC(C)(C)C)c1ccccc1-2", "label": "NO"}

Now for another entry.
Does CN1C(=O)CN=C(c2ccccc2)c2cc(Cl)ccc21 [DIAZEPAM] have a reported Chlorine uptake of at least 0.6?
YES

* * *

assay: Displacement of [3H]flunitrazepam from alpha-1-beta-2-gamma-2 GABA-A receptor subunits expressed in Sf9 cell membranes; parameters: species or system Rattus norvegicus
Each entry below lists one item and its recorded Ki value.
Returns: string containing the number followed by the unit.

Notebook: CC(=O)N1Cc2c(-c3noc(C4CC4)n3)ncn2-c2ccc(F)cc21 , Ki read as 0.6 nM

Notebook: CC(=O)N1Cc2c(-c3noc(C4CC4)n3)ncn2-c2cccc(F)c21 , Ki read as 0.8 nM

Notebook: O=C(c1ccccc1)N1Cc2c(-c3noc(C4CC4)n3)ncn2-c2cccc(F)c21 , Ki read as 0.3 nM

* * *

molecular target: GABA-A receptor; anion channel; assay: Displacement of [3H]- flunitrazepam from rat GABA-A benzodiazepine receptor
Binary call on Ki with cut-off 0.8 nM: strictly below means Met, and equality or higher means Not met.

Worked set:
{"molecule": "CC(C)(C)OC(=O)c1ncn2c1C1CCC(=O)N1c1ccccc1-2 (stereo not drawn)", "experimental target": "GABA-A receptor; anion channel", "label": "Met"}
{"molecule": "O=C1CCC2c3c(-c4noc(C5CC5)n4)ncn3-c3ccccc3N12 (stereo not drawn)", "experimental target": "GABA-A receptor; anion channel", "label": "Not met"}
{"molecule": "O=C(c1ccccc1)N1Cc2c(-c3noc(C4CC4)n3)ncn2-c2cccc(F)c21", "experimental target": "GABA-A receptor; anion channel", "label": "Met"}

Ki strictly < 0.8 nM for this molecule? O=C(c1ccccc1)N1Cc2c(-c3noc(C4CC4)n3)ncn2-c2ccc(F)cc21
Met

Ki strictly < 0.8 nM for this molecule? CC(C)(C)OC(=O)c1ncn2c1CN(C(=O)OC(C)(C)C)c1ccccc1-2
Not met

Ki strictly < 0.8 nM for this molecule? O=C(c1ccccc1Cl)N1Cc2c(-c3noc(C4CC4)n3)ncn2-c2ccccc21
Not met

Ki strictly < 0.8 nM for this molecule? O=C1OCC2c3c(-c4noc(C5CC5)n4)ncn3-c3ccccc3N12 (stereo not drawn)
Not met

Ki strictly < 0.8 nM for this molecule? CC(=O)N1Cc2c(-c3noc(C4CC4)n3)ncn2-c2ccc(F)cc21
Met
